All values here come from paper PMC3702004.

# System: Cyp1b1 mRNA in liver
# test_description: Cyp1b1 gene expression in liver (real-time PCR)
# Type: in vivo, female C57BL/6 mice
# test_context: dose metric Syst plasma; 3 days after single oral dose

- compound: "Clc1cc2c(cc1Cl)Oc1cc(Cl)c(Cl)cc1O2 [TCDD, 2,3,7,8-tetrachlorodibenzodioxin, reference compound]"
  BMR20TCDD Liver Cyp1b1 mRNA [ng/g lipid]: 11.6
- compound: "Clc1cc2oc3c(Cl)c(Cl)c(Cl)cc3c2cc1Cl [Congener 4-PeCDF, 2,3,4,7,8-pentachlorodibenzofuran]"
  BMR20TCDD Liver Cyp1b1 mRNA [ng/g lipid]: 44.6
- compound: "Clc1cc2c(cc1Cl)Oc1c(cc(Cl)c(Cl)c1Cl)O2 [PeCDD, 1,2,3,7,8-pentachlorodibenzodioxin]"
  BMR20TCDD Liver Cyp1b1 mRNA [ng/g lipid]: 18.5
